B1: library; a variant is named by its letters at N, in order (parent)
chain: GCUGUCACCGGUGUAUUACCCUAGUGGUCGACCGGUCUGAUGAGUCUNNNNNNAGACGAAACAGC

Variants of: B1
assayComment: normalized RNA/DNA level with ligand (relative to sTRSVctl = 100) (log10 (% of sTRSVctl)); ligand: hypoxanthine (xanthine aptamer); higher = less ribozyme self-cleavage, higher mRNA level
reportedConditions: ligand concentration (+) RNA-Seq: 5 mM, HEK293T, reporter: mCherry (pCS4076), ligand present: yes
readoutType: normalized RNA/DNA level with ligand (log10)
Give the figure by itself; no unit, no explanation.

// below: answered variants
{"columns": ["residueChange", "assayResult"],
 "data": [
  ["UCAGGU", 1.87],
  ["GACACU", 1.91],
  ["AGAGGA", 1.89],
  ["GCUUUU", 1.96],
  ["AUCCCG", 1.86],
  ["AUACUC", 1.93],
  ["UGAACU", 1.91],
  ["AAUUAU", 1.92],
  ["AUGUUU", 1.95],
  ["UGGGAA", 1.86]
]}

## Task Returns the measured normalized RNA/DNA level with ligand (log10) for the input variant. Input: UUAUAA
## Result 1.92

## Task Returns the measured normalized RNA/DNA level with ligand (log10) for the input variant. Input: CCUGGC
## Result 2.01

## Task Returns the measured normalized RNA/DNA level with ligand (log10) for the input variant. Input: GCAUAC
## Result 1.9

## Task Returns the measured normalized RNA/DNA level with ligand (log10) for the input variant. Input: CCAUUG
## Result 1.9

## Task Returns the measured normalized RNA/DNA level with ligand (log10) for the input variant. Input: ACCGCC
## Result 1.94

## Task Returns the measured normalized RNA/DNA level with ligand (log10) for the input variant. Input: UUCGGC
## Result 1.95

## Task Returns the measured normalized RNA/DNA level with ligand (log10) for the input variant. Input: UUAAGU
## Result 1.94

## Task Returns the measured normalized RNA/DNA level with ligand (log10) for the input variant. Input: CGGGGG
## Result 1.86

## Task Returns the measured normalized RNA/DNA level with ligand (log10) for the input variant. Input: ACUAUG
## Result 1.89

## Task Returns the measured normalized RNA/DNA level with ligand (log10) for the input variant. Input: GGGUAA
## Result 1.88

## Task Returns the measured normalized RNA/DNA level with ligand (log10) for the input variant. Input: CCGGCC
## Result 1.98

## Task Returns the measured normalized RNA/DNA level with ligand (log10) for the input variant. Input: UCAAGG
## Result 1.94
